Data provenance is patent US8501770B2.

ASSAYED_SYSTEM: Full-length inactive AKT1 (Homo sapiens, UniProt P31749)
Sequence (P31749 whole entry): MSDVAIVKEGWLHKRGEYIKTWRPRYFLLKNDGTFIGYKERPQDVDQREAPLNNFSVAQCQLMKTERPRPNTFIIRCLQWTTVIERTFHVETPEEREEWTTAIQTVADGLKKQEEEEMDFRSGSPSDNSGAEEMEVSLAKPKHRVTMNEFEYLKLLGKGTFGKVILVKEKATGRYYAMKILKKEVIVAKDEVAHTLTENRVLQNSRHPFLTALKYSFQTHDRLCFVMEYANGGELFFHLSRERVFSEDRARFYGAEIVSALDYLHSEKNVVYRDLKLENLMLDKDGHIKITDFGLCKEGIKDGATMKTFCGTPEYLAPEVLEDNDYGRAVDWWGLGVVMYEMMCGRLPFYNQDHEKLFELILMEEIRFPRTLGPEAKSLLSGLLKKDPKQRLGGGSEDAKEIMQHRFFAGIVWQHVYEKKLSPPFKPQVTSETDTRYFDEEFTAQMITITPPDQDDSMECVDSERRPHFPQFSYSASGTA
ASSAY: Inactive Akt Alpha Screen Assay
Type: biochemical
CONDITION_SUMMARY: values not marked with "*"; read-out: Akt1 IC50, (AlphaScreen)
Give measured IC50 for each item. Keep answers brief.
Write the value in nM as a bare number.

Please report the recorded IC50 for Cc1cnc2c(c1)nc(-c1cccnc1N)n2-c1ccc(CNC(=O)C2Cc3ccccc3C2)cc1 .
730

Please report the recorded IC50 for Nc1ncccc1-c1nc2ccc(-c3cccnc3)nc2n1-c1ccc(CNC(=O)c2ccccc2)cc1 .
32

Please report the recorded IC50 for Nc1ncccc1-c1nc2ccc(-c3cccc(C(=O)N4CCOCC4)c3)nc2n1-c1ccc(C2(N)CCC2)cc1 .
3

Please report the recorded IC50 for CN(C)c1cccc(-c2ccc3nc(-c4cccnc4N)n(-c4ccc(C5(N)CCC5)cc4)c3n2)c1 .
5.3

Please report the recorded IC50 for Nc1ncccc1-c1nc2ccc(-c3ccc4scnc4c3)nc2n1-c1ccc(C2(N)CCC2)cc1 .
4.2

Please report the recorded IC50 for Cc1cnc2c(c1)nc(-c1cccnc1N)n2-c1ccc(CNC(=O)c2ccc(C)c(F)c2)cc1 .
120

Please report the recorded IC50 for CC(=O)Nc1cccc(-c2ccc3nc(-c4cccnc4N)n(-c4ccc(CC(=O)Nc5ccccc5)cc4)c3n2)c1 .
13

---

ASSAYED_SYSTEM: Full-length inactive AKT1 (Homo sapiens)
ASSAY: Inactive Akt Alpha Screen Assay
Assay type: biochemical
CONDITION_SUMMARY: values not marked with "*"; read-out: Akt1 IC50, (AlphaScreen)
Give measured pIC50 for each item. Keep answers brief.
pIC50 here: minus log base 10 of the concentration, concentration in moles per litre.

Please report the recorded pIC50 for Cc1cnc2c(c1)nc(-c1cccnc1N)n2-c1ccc(CNC(=O)c2ccc3nc(C)ccc3c2)cc1 .
7.70

Please report the recorded pIC50 for Nc1ncccc1-c1nc2ccc(-c3ccncc3)nc2n1-c1ccc(C2(N)CCC2)cc1 .
8.41

Please report the recorded pIC50 for COc1cc(-c2ccc3nc(-c4cccnc4N)n(-c4ccc(C5(N)CCC5)cc4)c3n2)ccc1O .
8.57

Please report the recorded pIC50 for Cc1ccc(C)c(S(=O)(=O)NCc2ccc(-n3c(-c4cccnc4N)nc4cc(Br)cnc43)cc2)c1 .
6.32

Please report the recorded pIC50 for CC(=O)Nc1ccc(-c2ccc3nc(-c4cccnc4N)n(-c4ccc(CNC(=O)c5ccc(C)c(F)c5)cc4)c3n2)cc1 .
7.02

Please report the recorded pIC50 for CC(=O)Nc1cccc(-c2ccc3nc(-c4cccnc4N)n(-c4ccc(CNC(=O)c5cccc(F)c5)cc4)c3n2)c1 .
8.14

Please report the recorded pIC50 for COc1ccc(NC(=O)NCc2ccc(-n3c(-c4cccnc4N)nc4cc(F)cnc43)cc2)cc1 .
5.92

Please report the recorded pIC50 for Nc1ncccc1-c1nc2ccc(-c3ccccc3)nc2n1-c1ccc(NC(=O)c2ccccc2)cc1 .
7.09

Please report the recorded pIC50 for Cc1cnc2c(c1)nc(-c1cccnc1N)n2-c1ccc(CNC(=O)c2cccc(Cl)c2)cc1 .
6.85

Please report the recorded pIC50 for Nc1ncccc1-c1nc2cc(Br)cnc2n1-c1ccc(CNS(=O)(=O)c2cccc(F)c2)cc1 .
6.48

Please report the recorded pIC50 for CC(=O)Nc1ccc(-c2cnc3c(c2)nc(-c2cccnc2N)n3-c2ccc(CNC(=O)c3ccccc3)cc2)cc1 .
7.33

Please report the recorded pIC50 for CN(CCO)C(=O)c1cccc(-c2ccc3nc(-c4cccnc4N)n(-c4ccc(C5(N)CCC5)cc4)c3n2)c1 .
8.64

Please report the recorded pIC50 for Nc1ncccc1-c1nc2ccc(-c3ccc(F)cc3)nc2n1-c1ccc(CNC(=O)c2cccc(F)c2)cc1 .
6.44

Please report the recorded pIC50 for Cc1ccc2nc(-c3cccnc3N)n(-c3ccc(CNC(=O)c4ccc(C(C)C)cc4)cc3)c2n1 .
7.85

Please report the recorded pIC50 for N#Cc1cccc(-c2ccc3nc(-c4cccnc4N)n(-c4ccc(CNC(=O)c5cccc(F)c5)cc4)c3n2)c1 .
6.74

Please report the recorded pIC50 for Cc1cnc2c(c1)nc(-c1cccnc1N)n2-c1ccc(CNC(=O)c2ccccc2Cl)cc1 .
7.20

Please report the recorded pIC50 for CC(=O)Nc1cccc(-c2ccc3nc(-c4cccnc4N)n(-c4ccc(CNC(=O)c5ccc(C)c(F)c5)cc4)c3n2)c1 .
8.02

Please report the recorded pIC50 for CC(=O)c1cccc(-c2ccc3nc(-c4cccnc4N)n(-c4ccc(C5(N)CCC5)cc4)c3n2)c1 .
8.68

Please report the recorded pIC50 for NCc1ccc(-n2c(-c3cccnc3N)nc3ccc(-c4cccc(C(=O)O)c4)nc32)cc1 .
7.57

Please report the recorded pIC50 for Cc1cnc2c(c1)nc(-c1cccnc1N)n2-c1ccc(CNC(=O)c2cncs2)cc1 .
6.11

Please report the recorded pIC50 for Cc1cc2nc(-c3cccnc3N)n(-c3ccc(CNC(=O)c4cccc(F)c4)cc3)c2nc1C .
7.12

Please report the recorded pIC50 for Cc1cnc2c(c1)nc(-c1cccnc1N)n2-c1ccc(CNC(=O)Cc2ccccc2)cc1 .
6.64

Please report the recorded pIC50 for Cc1ccc(S(=O)(=O)NCc2ccc(-n3c(-c4cccnc4N)nc4cc(Br)cnc43)cc2)cc1 .
6.35

Please report the recorded pIC50 for Cn1cccc1C(=O)NCc1ccc(-n2c(-c3cccnc3N)nc3cc(-c4cccnc4)cnc32)cc1 .
6.77

Please report the recorded pIC50 for Nc1ncccc1-c1nc2ccc(-c3cccnc3)nc2n1-c1ccc(CNC(=O)c2cccc(F)c2)cc1 .
7.00

Please report the recorded pIC50 for Nc1ncccc1-c1nc2ccc(-c3cccc(N4CCOCC4)c3)nc2n1-c1ccc(C2(N)CCC2)cc1 .
8.64

Please report the recorded pIC50 for CC(C)(C)OC(=O)NCc1ccc(-n2c(-c3cccnc3N)nc3cc(-c4cccnc4)cnc32)cc1 .
6.70

Please report the recorded pIC50 for CC(=O)Nc1ccc(NC(=O)c2ccc(-n3c(-c4cccnc4N)nc4cccnc43)cc2)cc1 .
6.08

Please report the recorded pIC50 for COc1ccccc1C(=O)NCc1ccc(-n2c(-c3cccnc3N)nc3cc(C)cnc32)cc1 .
6.59

Please report the recorded pIC50 for Nc1ncccc1-c1nc2cc(-c3cccnc3)cnc2n1-c1ccc(CNC(=O)c2cccc(F)c2)cc1 .
7.68

---

Give measured IC50 for each item. Keep answers brief.
ASSAYED_SYSTEM: Full-length inactive AKT1 (Homo sapiens)
ASSAY: Inactive Akt Alpha Screen Assay
Format: biochemical
CONDITION_SUMMARY: values not marked with "*"; read-out: Akt1 IC50, (AlphaScreen)
Write the value in nM as a bare number.

Please report the recorded IC50 for CS(=O)(=O)NC1(c2ccc(-n3c(-c4cccnc4N)nc4ccc(-c5ccccc5)nc43)cc2)CCC1 .
180

Please report the recorded IC50 for Nc1ncccc1-c1nc2cc(F)cnc2n1-c1ccc(CC(=O)Nc2ccccc2)cc1 .
53

Please report the recorded IC50 for Nc1ncccc1-c1nc2ccc(-c3ccccc3CO)nc2n1-c1ccc(C2(N)CCC2)cc1 .
10

Please report the recorded IC50 for CCCOc1cccc(-c2ccc3nc(-c4cccnc4N)n(-c4ccc(C5(N)CCC5)cc4)c3n2)c1 .
11

Please report the recorded IC50 for CC(=O)Nc1ccc(C(=O)NCc2ccc(-n3c(-c4cccnc4N)nc4cc(-c5cccnc5)cnc43)cc2)cc1 .
42

Please report the recorded IC50 for Nc1ncccc1-c1nc2cc(Br)cnc2n1-c1ccc(NC(=O)c2ccccc2)cc1 .
20

Please report the recorded IC50 for CC(C)C(=O)Nc1cccc(-c2ccc3nc(-c4cccnc4N)n(-c4ccc(C5(N)CCC5)cc4)c3n2)c1 .
13

Please report the recorded IC50 for Cc1cnc2c(c1)nc(-c1cccnc1N)n2-c1ccc(CNC(=O)Cc2nnn[nH]2)cc1 .
740

---

ASSAYED_SYSTEM: Full-length inactive AKT1 (Homo sapiens)
ASSAY: Inactive Akt Alpha Screen Assay
Assay type: biochemical
CONDITION_SUMMARY: AlphaScreen assay (values not marked with *); read-out: Akt1 IC50, (AlphaScreen) (μM) (or if marked with “*” HTRF assay)
Structures can show the parent of a compound that is named as a salt.
Rule: IC50 below 0.009 µM gives Yes, anything at or above gives No.

Is it true that IC50 reported for Nc1ncccc1-c1nc2ccc(-c3ccc4c(c3)CC(=O)N4)nc2n1-c1ccc(C2(N)CCC2)cc1 is less than 0.009 µM?
Yes

Is it true that IC50 reported for Nc1ncccc1-c1nc2ccc(-c3cccc(N4CCC4)c3)nc2n1-c1ccc(C2(N)CCC2)cc1 is less than 0.009 µM?
No

Is it true that IC50 reported for Nc1ncccc1-c1nc2ccc(-c3cccc4[nH]ncc34)nc2n1-c1ccc(C2(N)CCC2)cc1 is less than 0.009 µM?
Yes

Is it true that IC50 reported for Nc1ncccc1-c1nc2ccc(-c3cc(O)cc(F)c3)nc2n1-c1ccc(C2(N)CCC2)cc1 is less than 0.009 µM?
No

Is it true that IC50 reported for Nc1ncccc1-c1nc2ccc(-c3cccc(N4CCOCC4)n3)nc2n1-c1ccc(C2(N)CCC2)cc1 is less than 0.009 µM?
Yes

Is it true that IC50 reported for Nc1ncccc1-c1nc2ccc(-c3cc(O)ccc3F)nc2n1-c1ccc(C2(N)CCC2)cc1 is less than 0.009 µM?
No

Is it true that IC50 reported for Nc1ncccc1-c1nc2ccc(-c3cccc(N4CCOCC4=O)c3)nc2n1-c1ccc(C2(N)CCC2)cc1 [Example 466, hydrochloride] is less than 0.009 µM?
Yes
